System: human acute monocytic leukemia cell strain MV4-11 (expressing FLT3/ITD mutant gene)
protocol_description: Effects on proliferation of tumor cells (Cell Titer-Glo), MV4-11
Assay type: cell-based
run_conditions: MV4-11, incubated for 72 hours
readout_label: IC50 (µM)

compound="CS(=O)(=O)O.Nc1sc(-c2c(F)cccc2F)nc1C(=O)Nc1cncnc1OCC1CCNCC1 [Mesylate of compound of Formula (I)]" value_measured=0.43
compound="CC(O)C(=O)O.Nc1sc(-c2c(F)cccc2F)nc1C(=O)Nc1cncnc1OCC1CCNCC1 [Lactate of compound of Formula (I)]" value_measured=0.34
compound="Br.Nc1sc(-c2c(F)cccc2F)nc1C(=O)Nc1cncnc1OCC1CCNCC1 [Hydrobromide of compound of Formula (I)]" value_measured=0.42
